Below, each of the binders is paired with its reported MFI fold change to isotype ctrl value.
# assay-target: T1, human CCR8 (human, UniProt P51685 1-355)
# T1 construct: also called hCCR8; CC chemokine receptor 8
# method-summary: flow cytometry, hCCR8-transfected CHO-K1 cells
Quick reminder: number only, in fold, skip the unit.

[[record]]
binder = "anti-CCR8 mAb 1-3 (antibody, V domains shown, Murine hybridoma mAb) VH: KVQLQQSGPELVKPGASVKISCKTSGYTFTEYTIHWVQQIHGKSPEWIGGINPNGDTRYDQKFKGKATLTIDKSSSTAYMELRSLTSEDSAVYYCARVARFYGISPYAMDYWGQGTSVTVSS VL: DVVMTQTPLSLPVSLGDQASISCRCTQSLLHSNGDTYLHWYLQKPGQSPNLLIYKVSNRFSGVPDRFSGSGSGTDFTLKINRVEAEDLGVYFCSQSTHVPYTFGGGTNLEIK"
property = "MFI fold change to isotype ctrl"
test_result = 9.8


Endpoint output: MFI fold change to isotype ctrl of anti-CCR8 mAb 1-17 (antibody, V domains shown, Murine hybridoma mAb) VH: QVQLQQPGSELVRPGASVKLSCKASGYTFTSYWMHWVKQRPGQGLEWIGNIWPGSASTNYDEKFKNKATLTVDTSSSTAYMQLSSLTSEDSAVYYCIRGGKGAMDYWSQGTSVTVSS VL: DVVMTQIPLSLPVSLGDQASISCRSSQSLENSYGNTYLNWYLQKPGQSPQLLIYRVSNRFSGVLDRFSGSGSGTDFTLKISRVEAEDLGVYFCLQVTHVPPTFGAGTKLELK . Value?
9.92
